Quick reference for IC50 among some compounds
# experimentDescription: Antagonist activity against human D3R expressed in CHO cells assessed as inhibition of quinpirole-induced mitogenesis after 16 hrs by [3H]thymidine uptake assay
# value in nM; strip the unit string

Field: example entries. Status: answers known.
INSERT INTO results (smilescode, unitspec, reportedresult) VALUES
  ('CC(C)(C)c1nc(N2CCN(CCCCNC(=O)c3nc4ccccc4[nH]3)CC2)cc(C(F)(F)F)n1', 'nM', 208),
  ('COc1ccccc1N1CCN(CCCCNC(=O)c2cn3ccccc3n2)CC1', 'nM', 3),
  ('O=C(NCCCCN1CCN(c2cccc(Cl)c2Cl)CC1)c1cn2ccccc2n1', 'nM', 7.2);

Here is another compound to look at.
Give the measured IC50 of `O=C(NCCCCN1CCN(c2ncnc3ccccc23)CC1)c1cn2ccccc2n1` . 940
